# Test system: HCT-15 colon
# protocolDetails: NCI tumour cell line growth inhibition, 48 h
metricName: TGI

Solved entries (count: 5):
compound	observed
CC(NC(=O)/C(=C/c1ccccc1O)NC(=O)c1ccccc1)C(=O)O (stereo not given)	80.4 µM
CC(C)(C)N=C1CC(C)(C)c2ccccc2C(=Nc2ccccc2)S1	> 100 µM
Cc1ccc(C(=O)N(C(C)C)C(C)C)cc1N=NN(C)C	> 100 µM
CC1=C(C(=O)OCCc2ccc([N+](=O)[O-])cc2)C(c2ccccc2[N+](=O)[O-])C(C(=O)OC(C)C)=C(C)N1 (stereo not given)	> 100 µM
CC1=CC(O)C(O)C2(C)C1CC1OC(=O)C(O)C3C(C)C(O)C4(O)OCC13C42 (stereo not given)	> 625 µM

Record request: TGI value, item CC(CN=C(CC(=O)c1ccc(Br)cc1)c1ccccc1)N=C(CC(=O)c1ccc(Br)cc1)c1ccccc1 (stereo not given) > 100 µM

Record request: TGI value, item `Cc1ccc(S(=O)(=O)n2cncc2CO)cc1` > 100 µM

Record request: TGI value, item `O=C1/C(=C/c2ccccc2)CCc2ccc(Cl)nc21` 11.4 µM

Record request: TGI value, item `Cc1ccc(Cl)cc1Nc1nc(C(F)(F)F)ccc1C(=O)Nc1cccc(C(F)(F)F)c1` 14.9 µM

Record request: TGI value, item `COc1ccc(-c2nn(-c3cccc(Cl)c3)cc2C=C(C#N)C#N)cc1` > 100 µM

* * *

We begin with a simple list: items and their reported GI50.
# Test system: PC-3 prostate
# protocolDetails: NCI tumour cell line growth inhibition, 48 h

structure	GI50
COc1ccc(C(=O)c2cc(OC)c(OC)c(OC)c2)cc1OC(C)=O	0.0208 µM
COc1ccc(-c2oc(=O)ccc2C#Cc2cc(OC)c(OC)c(OC)c2)cc1O	23.3 µM
CC(C)C[C@H](NC(=O)[C@H](CCc1ccccc1)NC(=O)CN1CCOCC1)C(=O)N[C@@H](Cc1ccccc1)C(=O)N[C@@H](CC(C)C)C(=O)[C@@]1(C)CO1	0.0247 µM

Now turn to the next compound.
Record request: GI50 value, item `O=C(c1ccccc1Nc1ccnc(C(F)(F)F)c1)N1CCN(c2cccc(Cl)c2)CC1` 9.45 µM

* * *

# Tested on: MOLT-4 leukemia
# protocolDetails: NCI tumour cell line growth inhibition, 48 h
We begin with a simple list: items and their reported GI50.

Solved entries (count: 3):
compound	GI50
CC[C@@]1(O)C(=O)NCc2c1cc1n(c2=O)Cc2cc3ccccc3nc2-1	300 nM
CC(=O)OCC1OC(OC2C(COC(C)=O)OC(OCCC[S-])C(OC(C)=O)C2OC(C)=O)C(OC(C)=O)C(OC(C)=O)C1OC(C)=O.[Au+].c1ccc(CN2[CH-]N(Cc3ccccc3)C(c3ccccc3)=C2c2ccccc2)cc1 (centres undefined)	3420 nM
CCN1CCN(c2nc(NNC(=O)Cc3ccccc3)nc(N3CCN(C(c4ccccc4)c4ccccc4)CC3)n2)CC1	2630 nM

Now turn to the next compound.
Record request: GI50 value, item `Nc1ccc(-c2nc3ccc4[nH]ncc4c3c3c2CCCC3)cc1F` 1270 nM

* * *

We begin with a simple list: items and their reported TGI.
# Tested on: OVCAR-4 ovarian
# protocolDetails: NCI tumour cell line growth inhibition, 48 h

Solved entries (count: 5):
compound	TGI
O=C(c1ccccc1)c1c(C(F)(F)F)n([O-])c2ccccc2[n+]1=O	1.11 µM
CC1=NNC(=NCCN(C)C)C/C1=C/c1ccccc1Cl	> 100 µM
COC(=O)C(=O)C1(CCC(C)=O)c2ccccc2-c2ccccc21	> 100 µM
CC1=C(C(=O)OCCc2ccc([N+](=O)[O-])cc2)C(c2ccccc2[N+](=O)[O-])C(C(=O)OC(C)C)=C(C)N1 (stereo unspecified)	> 100 µM
C/C(O)=C(\C=N\C(N)=S)C(=O)Nc1ccccc1C	> 100 µM

Record request: TGI value, item `CCOC(=O)c1cc2c(OC(C)=O)ccc(OC(C)=O)c2s1` 31.3 µM

Record request: TGI value, item `O=C(/C=C/c1ccc(-c2ccccc2[N+](=O)[O-])o1)NCc1ccc(C(=O)NCCc2ccccc2)cc1` > 100 µM

Record request: TGI value, item `Cl.[Pt].[c-]1ccccc1-c1ccccn1.c1ccc(P(c2ccccc2)C([PH+](c2ccccc2)c2ccccc2)[PH+](c2ccccc2)c2ccccc2)cc1` 8.63 µM

Record request: TGI value, item `N#Cc1c(NC(=O)c2ccccc2)sc2c1CCC(=O)C2` 2.49 µM

* * *

# System: UACC-257 melanoma
# protocolDetails: NCI tumour cell line growth inhibition, 48 h; in the data active means GI50 below about 0.43 µM; inactive means the rest
Parameter call: string, one of t for active, f for inactive

These solved cases illustrate the format of a correct answer.
compound	qualitativeLabel
Nc1ncnc2c1c(C(F)(F)F)cn2[C@@H]1O[C@H](CO)[C@@H](O)[C@H]1O	t
O=C1NC(=O)/C(=C/C=C/c2ccccc2)S1	f

Any idea what this test logged for C=C(C=O)C1CC(=O)C(C(=O)OC)[C@@H]2O[C@@](C)(CC2=O)C[C@@H]2OC(=O)[C@]3(O[C@@H]23)[C@@H](C(=O)OC)C1 (some centres undefined) ? f

Any idea what this test logged for `Nc1ccc(-c2nc3ccc4[nH]ncc4c3c3c2CCCC3)cc1F` ? f

Any idea what this test logged for `CC(=O)Oc1ccc(OC(C)=O)c2ccccc12` ? f

Any idea what this test logged for `C/C1=C\[C@H](C)C[C@H](C)OC(=O)C[C@H](c2ccc(O)cc2)NC(=O)[C@@H](Cc2c(Br)[nH]c3ccccc23)N(C)C(=O)[C@H](C)NC(=O)[C@@H](C)C1` ? t

Any idea what this test logged for `O=C(/C=C/c1ccc(C(F)(F)F)cc1)c1ccc(Nc2nc(NCCO)nc(NCCO)n2)cc1` ? f

Any idea what this test logged for CC(=O)OCC1OC(OC2C(COC(C)=O)OC(OCCC[S-])C(OC(C)=O)C2OC(C)=O)C(OC(C)=O)C(OC(C)=O)C1OC(C)=O.[Au+].c1ccc(CN2[CH-]N(Cc3ccccc3)C(c3ccccc3)=C2c2ccccc2)cc1 (centres undefined) ? f

Any idea what this test logged for `COc1ccc(-c2nn(-c3cccc(Cl)c3)cc2C=C(C#N)C#N)cc1` ? f

* * *

We begin with a simple list: items and their reported GI50.
# Tested on: A498 renal
# protocolDetails: NCI tumour cell line growth inhibition, 48 h

compound	GI50
COC(=O)C[CH](C(=O)OC)[Ge]([CH3])([CH3])[S]c1ccccc1 (stereo not drawn)	19.7 µM

GI50 of `Cn1nc(C(F)(F)F)c(-c2ccc(Cl)c(C(F)(F)F)c2)c1-c1ccc(OCc2ccc(Cl)cc2)cc1O` on A498 renal? 1.05 µM

GI50 of CC(=O)OCC1OC(OC2C(COC(C)=O)OC(OCCC[S-])C(OC(C)=O)C2OC(C)=O)C(OC(C)=O)C(OC(C)=O)C1OC(C)=O.[Au+].c1ccc(CN2[CH-]N(Cc3ccccc3)C(c3ccccc3)=C2c2ccccc2)cc1 (stereo not drawn) on A498 renal? 3.41 µM

* * *

# Test system: HOP-62 NSCLC
# protocolDetails: NCI tumour cell line growth inhibition, 48 h
We begin with a simple list: items and their reported TGI.
Respond with the bare value in µM.

Solved entries (count: 3):
structure	measurementUnit	TGI
O=C1/C(=C/c2ccccc2)CCc2ccc(Cl)nc21	µM	42
COc1ccc(OC)c(-c2nc3sccn3c2/C=C2/C(=O)Nc3ccc(Cl)cc32)c1	µM	60.5
CCOC(=O)C(C)(C)Oc1ccc2c(=O)cc(-c3ccccc3)oc2c1	µM	41

Record request: TGI value, item `O=C(N/N=C\c1cccc2ccccc12)Nc1ccc([N+](=O)[O-])cc1` 59.2

Record request: TGI value, item `O=C1c2ccccc2C(=O)c2c(NCCCNCCO)ccc(NCCCNCCO)c21` 23.8

Record request: TGI value, item `S=c1nc(-c2ccccc2)oc(=NC2CCCCC2)n1C1CCCCC1` 23.1

* * *

# System: CCRF-CEM leukemia
# protocolDetails: NCI tumour cell line growth inhibition, 48 h
metricName: TGI

molecule	experimentalTarget	TGI
CCC1(CC)C(=O)CC[C@@]2(C)C1=CC[C@H]1[C@@H]3CC[C@H](O)[C@@]3(C)CC[C@@H]12	CCRF-CEM leukemia	45.7 µM

Record request: TGI value, item `CCCCc1c2c(nc3c1CCc1cc4c(nc1-3)-c1nc3c(c(CCCC)c1CC4)CCC/C3=C\c1ccccc1)/C(=C/c1ccccc1)CCC2` > 100 µM

Record request: TGI value, item CC(=O)NC1C(CO)O[C@@H]2OC(C)(C)O[C@H]12 (stereo not given in full) > 100 µM

Record request: TGI value, item `O=C(NCc1cccnc1)/C(=C\c1ccc(Br)cc1)S(=O)(=O)c1ccccc1` 4.5 µM

Record request: TGI value, item `O=C1NC(=S)N/C1=C/c1ccccc1O` > 100 µM

Record request: TGI value, item `CN(C)C[C@H]1CC[C@@H](CN(C)C)C1=O` 5.02 µM

Record request: TGI value, item `Cc1cc(S(=O)(=O)Nc2nnc3c(C(F)(F)F)cc(Cl)cn23)c(S)cc1Cl` > 100 µM

Record request: TGI value, item `CCN1CCN(c2nc(NNC(=O)Cc3ccccc3)nc(N3CCN(C(c4ccccc4)c4ccccc4)CC3)n2)CC1` 6.71 µM

Record request: TGI value, item COc1cc(C2C3=C(CCC3=O)Oc3cc4c(cc32)OCO4)cc(OC)c1OC (stereo not given) > 100 µM

Record request: TGI value, item `COc1ccc(-c2nn(-c3cccc(Cl)c3)cc2C=C(C#N)C#N)cc1` 4.76 µM
